test system: HeLa cervical cancer cell line; assay: In-vitro cell survival assay (Alamar blue), HeLa; format: cell-based; settings: Homo sapiens, 24 h, one day after compound addition
// classify: if (EC50 < 20 µM) Satisfied else Not satisfied

Worked examples, 5 molecules total:
O=C(c1ccccc1)n1nc(-c2ccco2)nc1NCc1ccccc1
Not satisfied
Cc1cccc(Nc2nccc(Nc3cccc(C(=O)Nc4ccc(F)cc4)c3)n2)c1 [drawing 382]
Satisfied
C[C@@H](Oc1cc(-c2cnn(C3CCNCC3)c2)cnc1N)c1c(Cl)ccc(F)c1Cl [drawing 491]
Satisfied
CN(C)CC(C)(C)CNC(=O)c1cccc(Nc2nccc(Nc3ccc4ncsc4c3)n2)c1 [drawing 413]
Not satisfied
Cc1cccc(Nc2nccc(Nc3cccc(C(=O)N(C)CCCN(C)C)c3)n2)c1 [drawing 425]
Not satisfied

## Task Confirm or reject: EC50 of O=C(CCn1ccc2ccccc21)Nc1ccc(F)cc1 [drawing 475] lies strictly below 20 µM
## Result Not satisfied

## Task Next record, please: O=C(c1ccccc1)n1nc(-c2ccco2)nc1NCc1ccc(Cl)cc1 [drawing 432]
## Result Not satisfied

## Task Another molecule: Nc1nc(Nc2ccc(C(=O)N3CCCCCC3)cc2)cc(Nc2ccc3ncsc3c2)n1 [drawing 409]
## Result Not satisfied

## Task What do you have for Nc1nc(Nc2ccc(C(=O)N3CCC[C@H]4CCCC[C@H]43)cc2)cc(Nc2ccc3ncsc3c2)n1 ?
## Result Not satisfied

## Task Can you check COc1ccc(NC(=O)CC2=Nc3cccc4cccc(c34)NC2=O)cc1 [drawing 482] next?
## Result Satisfied

## Task Also need Nc1nc(Nc2ccc(C(=O)NCc3ccco3)cc2)cc(Nc2ccc3ncsc3c2)n1 [drawing 375] , thanks.
## Result Not satisfied

## Task Now give it for CC(C)c1nc(Nc2ccc(C(=O)NC3CCCCC3)cc2)nc(Nc2ccc3ncsc3c2)n1 [drawing 456] too.
## Result Not satisfied

## Task Note, next up: Cc1[nH]c2nc(NCc3cccc([N+](=O)[O-])c3)nn2c(=O)c1Cc1ccccc1 [drawing 359]
## Result Not satisfied

## Task Try this molecule next: CC(C)CN(CC(C)C)C(=O)c1cccc(Nc2nccc(Nc3ccc4ncsc4c3)n2)c1 [drawing 424]
## Result Satisfied

## Task Try this molecule too: O=C(c1cccc(Nc2nccc(Nc3ccc4ncsc4c3)n2)c1)N1CCCCCC1 [drawing 421]
## Result Satisfied

Reference source: patent US9963452B2
